- System: CYP3A4
- test_method_notes: Metoprolol metabolism by human liver microsomes with ketoconazole
- Type: in vitro ADME
- conditions_used: pooled human liver microsomes, pH 7.4, probe metoprolol 25 μM
experimental_readout: inhibition at 1 μM

Input line: Could you tell me which inhibition at 1 μM is on file for CC(=O)N1CCN(c2ccc(OCC3COC(Cn4ccnc4)(c4ccc(Cl)cc4Cl)O3)cc2)CC1 (stereo not shown) [ketoconazole] ?
Output line: 9.9 to 17.5%
